# Study system: UniProt P14842
# Sequence (P14842 whole entry): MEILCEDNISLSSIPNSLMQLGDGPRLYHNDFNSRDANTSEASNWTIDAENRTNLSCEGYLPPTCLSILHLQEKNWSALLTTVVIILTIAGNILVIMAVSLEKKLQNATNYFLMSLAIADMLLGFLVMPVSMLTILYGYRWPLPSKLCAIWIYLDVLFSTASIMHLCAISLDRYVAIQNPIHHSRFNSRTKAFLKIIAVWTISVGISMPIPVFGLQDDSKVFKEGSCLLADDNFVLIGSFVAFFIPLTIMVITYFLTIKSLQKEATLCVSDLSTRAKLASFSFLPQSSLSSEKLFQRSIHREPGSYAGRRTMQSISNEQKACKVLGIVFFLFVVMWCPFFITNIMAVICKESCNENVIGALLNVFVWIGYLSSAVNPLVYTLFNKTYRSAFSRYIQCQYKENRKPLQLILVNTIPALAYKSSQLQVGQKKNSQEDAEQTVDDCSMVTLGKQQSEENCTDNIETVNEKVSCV
# Test name: in-vitro affinity to 5-HT2A receptors, displacement of [3H]ketanserine (Example A1)
# Type: binding
# Measurement conditions: target not given; description names affinity to 5-HT2A receptors; read-out: IC50
# From the text: The 5-HT2A receptors are exposed both to [^3H]ketanserine (a substance which is known for its affinity to the receptor) and also to the test compound. The decrease in the affinity of [^3H]ketanserine to the receptor is an indication of the affinity of the test substance to the 5-HT2A receptor.
What IC50 was measured for each of the following?

// IC50 lookup, key: Fc1ccccc1-c1c(CNC2C3CNCC32)cnn1-c1ccc(-c2ccccc2)cc1 (centres unmarked)
320 nM

// IC50 lookup, key: Fc1ccccc1-c1c(CN2CCOCC2)cnn1-c1ccc(-c2cccs2)cc1
620 nM

// IC50 lookup, key: OCC(Cc1cnc[nH]1)NCc1cnn(-c2ccc(-c3ccccc3)cc2)c1-c1ccccc1F (centres unmarked)
370 nM

// IC50 lookup, key: N#CC(NCc1cnn(-c2ccc(-c3ccccc3)cc2)c1-c1ccccc1F)C(N)=O (centres unmarked)
130 nM

// IC50 lookup, key: OC1CCN(Cc2cnn(-c3ccc(-c4ccccc4)cc3)c2-c2ccccc2F)C1 (centres unmarked)
14 nM

// IC50 lookup, key: Fc1ccccc1-c1c(CN2CCN3CCc4ccccc4C3C2)cnn1-c1ccc(-c2ccccc2)cc1 (centres unmarked)
280 nM

// IC50 lookup, key: NC(=O)CN1CCN(Cc2cnn(-c3ccc(-c4ccccc4)cc3)c2-c2ccccc2F)CC1
360 nM

// IC50 lookup, key: CN(C)C(=O)CNCc1cnn(-c2ccc(-c3ccccc3)cc2)c1-c1ccccc1F
200 nM

// IC50 lookup, key: CCOC(=O)N1CCN(Cc2cnn(-c3ccc(-c4ccccc4)cc3)c2-c2ccccc2F)CC1
58 nM

// IC50 lookup, key: CN1CCN(Cc2cnn(-c3ccc(OC(F)(F)F)cc3)c2-c2ccccc2F)CC1
270 nM

// IC50 lookup, key: OCCc1cnn(-c2ccc(-c3ccccc3)cc2)c1-c1ccccc1F
470 nM
